I'd appreciate it if you could supply DC50 values for the items below.
target.or.test.system: IRAK4 (Homo sapiens, UniProt Q9NWZ3)
Construct: endogenous in cells; host or cells: OCI-LY10
Sequence (Q9NWZ3 whole entry): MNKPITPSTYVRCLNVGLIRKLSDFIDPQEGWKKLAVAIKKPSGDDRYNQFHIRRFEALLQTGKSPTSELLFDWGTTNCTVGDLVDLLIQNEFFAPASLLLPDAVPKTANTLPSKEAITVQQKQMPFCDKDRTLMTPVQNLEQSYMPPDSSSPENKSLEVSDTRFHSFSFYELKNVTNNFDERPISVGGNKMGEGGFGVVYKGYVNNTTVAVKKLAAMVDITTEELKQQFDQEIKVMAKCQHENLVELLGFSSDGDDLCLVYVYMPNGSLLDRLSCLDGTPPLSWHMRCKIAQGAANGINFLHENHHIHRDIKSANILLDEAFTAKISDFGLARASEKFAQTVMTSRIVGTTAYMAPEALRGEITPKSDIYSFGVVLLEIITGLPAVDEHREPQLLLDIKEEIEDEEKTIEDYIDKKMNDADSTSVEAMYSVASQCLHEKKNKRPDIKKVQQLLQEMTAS
test: IRAK4 MSD degradation in OCI-LY10
Format: cell-based
stated.conditions: OCI-LY10 cells, 24 hrs, Meso Scale Discovery

Requested read-out DC50, target or system IRAK4 (Homo sapiens, UniProt Q9NWZ3), entry COc1cc(C(=O)Nc2ccc3nn([C@H]4CC[C@H](CN5CC[C@@H](c6cccc7c6n(C)c(=O)n7C6CCC(=O)NC6=O)[C@H](F)C5)CC4)cc3c2)nc(C(F)(F)F)c1 (stereo partly drawn) [I-394] > 200 nM

Requested read-out DC50, target or system IRAK4 (Homo sapiens, UniProt Q9NWZ3), entry Cn1c(=O)n(C2CCC(=O)NC2=O)c2cccc(N3CCC4(CCN(C[C@H]5CC[C@H](n6cc7cc(NC(=O)c8cncc(Cl)c8)c(C(C)(C)O)cc7n6)CC5)CC4(F)F)CC3)c21 (stereo partly drawn) [I-387] < 10 nM

Requested read-out DC50, target or system IRAK4 (Homo sapiens, UniProt Q9NWZ3), entry Cn1c(=O)n(C2CCC(=O)NC2=O)c2cccc([C@@H]3CCN(C[C@H]4CC[C@H](n5cc6cc(NC(=O)c7cccc(C(F)(F)F)n7)c(C(C)(C)O)cc6n5)CC4)C[C@H]3F)c21 (stereo partly drawn) [I-7] < 10 nM

###

target.or.test.system: IRAK4 (Homo sapiens)
Construct: endogenous in cells; host or cells: OCI-LY10
test: IRAK4 MSD degradation in OCI-LY10
Assay type: cell-based
stated.conditions: OCI-LY10 cells, 24 hrs, Meso Scale Discovery
I'd appreciate it if you could supply DC50 values for the items below.

Can you share its DC50? I mean this compound: Cn1c(=O)n(C2CCC(=O)NC2=O)c2cccc([C@@H]3CCN(C[C@H]4CC[C@H](n5cc6cc(NC(=O)c7cccc(C(F)(F)F)n7)c(N7CCN(C8CC8)CC7)cc6n5)CC4)C[C@H]3F)c21 (some centres unmarked) 10 to 100 nM

Can you share its DC50? I mean this compound: CN(C[C@H]1C[C@@H](n2cc(NC(=O)c3cnn4ccc(N5C[C@H]6C[C@@H]5CO6)nc34)c(C(F)F)n2)C1)[C@@H]1CCN(c2cccc3c2n(C)c(=O)n3C2CCC(=O)NC2=O)C[C@@H]1F (some centres unmarked) < 10 nM

Can you share its DC50? I mean this compound: Cn1c(=O)n(C2CCC(=O)NC2=O)c2cccc([C@H]3CCN(C[C@H]4CC[C@H](c5nc6ccc(NC(=O)c7cccc(C(F)(F)F)n7)cc6s5)CC4)C[C@@H]3F)c21 (some centres unmarked) 10 to 100 nM

Can you share its DC50? I mean this compound: Cn1c(=O)n(C2CCC(=O)NC2=O)c2cccc([C@H]3CCN(C[C@H]4CC[C@H](n5cc6cc(NC(=O)c7cncc(C#N)c7)c(C(C)(C)O)cc6n5)CC4)CC3(F)F)c21 (single isomer, unassigned) < 10 nM

Can you share its DC50? I mean this compound: CN(C[C@H]1CC[C@H](n2cc3cc(NC(=O)c4cccc(C(F)(F)F)n4)ncc3n2)CC1)[C@H]1CCN(c2cccc3c2n(C)c(=O)n3C2CCC(=O)NC2=O)C[C@@H]1F (single isomer, unassigned) 10 to 100 nM
